Recorded values, source patent US20060079453A1.

target: HLA-DR DRB1*0401 (DR4) (Homo sapiens, UniProt P01903+P01911, A100K/A169T/F76Y/I96L/K127E/L162R/M171V/N62H/P40V/Q125Y/R42H/S133A/S149N/S66Y/V115G/V209L/W38E); assay: biochemical; type: binding; conditions: DRB1 *0401
For each record, write down the corresponding IC50.
Enter the number, and then the unit.

CC[C@H](C)[C@H](NC(=O)[C@@H](N)CCC(N)=O)C(=O)N[C@@H](Cc1ccc(O)cc1)C(=O)N[C@H](C(=O)N[C@@H](C)C(=O)N[C@@H](C)C(=O)N[C@@H](Cc1ccccc1)C(=O)N[C@H](C(=O)N[C@H](C(=O)N[C@@H](CCC(N)=O)C(=O)N[C@@H](C)C(=O)N[C@@H](C)C(=O)N[C@@H](C)C(=O)N[C@@H](CCC(=O)O)C(=O)N[C@H](C(=O)O)[C@@H](C)O)C(C)C)[C@@H](C)O)C(C)C | 0.0016 µM

Please give IC50, item by item, for the list that follows.
1. CC[C@H](C)[C@H](NC(=O)[C@@H]1CCCN1C(=O)[C@H](Cc1c[nH]cn1)NC(=O)[C@@H](NC(=O)[C@@H]1CCCN1C(=O)[C@@H](NC(=O)[C@H](CO)NC(=O)[C@@H]1CCCN1C(=O)[C@H](CC(C)C)NC(=O)CNC(=O)[C@@H](NC(=O)[C@H](C)NC(=O)[C@H](CCC(=O)O)NC(=O)[C@H](C)N)C(C)C)[C@@H](C)CC)C(C)C)C(=O)NCC(=O)O
2. CC[C@H](C)[C@H](NC(=O)[C@H](CCC(=O)O)NC(=O)[C@H](CC(C)C)NC(=O)[C@H](C)NC(=O)[C@H](CO)NC(=O)[C@H](CO)NC(=O)[C@H](CC(C)C)NC(=O)[C@H](CCC(=O)O)NC(=O)[C@H](Cc1c[nH]cn1)NC(=O)[C@H](CC(C)C)NC(=O)[C@H](CCCCN)NC(=O)[C@H](CCCNC(=N)N)NC(=O)[C@@H]1CCCN1)C(=O)N1CCC[C@H]1C(=O)N[C@@H](Cc1ccc(O)cc1)C(=O)O

Given back:
9.92 µM
5.28 µM
